- Tested on: HSC-4
- PROTOCOL: Cytotoxicity against human HSC4 cells after 48 hrs
- Format: functional
- EXPERIMENTAL_PARAMETERS: HSC-4, 48 h
Entries and their CC50 values follow.
PROPERTY_LABEL: CC50 (µM)

1) O=C1/C(=C/c2ccccc2)CN(C(=O)/C=C/C=C/C(=O)N2C/C(=C\c3ccccc3)C(=O)/C(=C/c3ccccc3)C2)C/C1=C\c1ccccc1 :: 6.4
2) O=C1/C(=C/c2ccccc2)CN(C(=O)CCCCCCC(=O)N2C/C(=C\c3ccccc3)C(=O)/C(=C/c3ccccc3)C2)C/C1=C\c1ccccc1 :: 0.62
3) O=C1/C(=C/c2ccccc2)CN(C(=O)C(=O)N2C/C(=C\c3ccccc3)C(=O)/C(=C/c3ccccc3)C2)C/C1=C\c1ccccc1 :: 0.2
4) O=C1/C(=C/c2ccccc2)CN(C(=O)/C=C/C(=O)N2C/C(=C\c3ccccc3)C(=O)/C(=C/c3ccccc3)C2)C/C1=C\c1ccccc1 :: 0.58
